The entries below are paired with their reported protein stability index.
assay: protein stability index of a GFP-peptide fusion (GPS, HEK-293T) (PSI 1-6); higher = more stable; settings: treatment: MLN4924 1 uM, 8 h; c terminus: a fixed tail appended;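 also: 24-mer peptide tiles fused after GFP, lentivirally expressed, FACS-sorted into six equal bins by GFP/DsRed ratio, decoded by Illumina sequencing, PSI is the read-weighted mean bin number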
ASSAY ENDPOINT: protein stability index

{"columns": ["RESIDUE STRING", "ASSAY ENDPOINT", "ENDPOINT VALUE"],
 "data": [
  ["IGTMAGITTPIIDTFKVPKEMFTV [SLC6A17]", "protein stability index", 2.71],
  ["AATTSKEQEPIGTDLDAVRTPEPL [MYBL2]", "protein stability index", 5.41],
  ["GKIIGGMWRDLTDEEKQEYLNEYE [SMARCE1]", "protein stability index", 4.64],
  ["NSAIRFLRKYSFDGLDLDWEYPGS [CHIT1]", "protein stability index", 2.36],
  ["DDFFRHESGEHFRSLLGYDPQILQ [RAD54B]", "protein stability index", 3.29],
  ["ICLEMFTKPVVILPCQHNLCRKCA [TRIM63]", "protein stability index", 2.41],
  ["SVLKRPERSQEESPPGSTKRRKSM [CDC25A]", "protein stability index", 5.5],
  ["GPFRTLLQFLYTGQLDEKEKDLVG [RHOBTB1]", "protein stability index", 2.49],
  ["SFARDLPDFPSINMDPAGLDDEDD [RETREG3]", "protein stability index", 5.49],
  ["YQAFRECTLETTVHASGWNKILVP [BCL2L13]", "protein stability index", 2.32],
  ["LAFFPFLHRLFREKSLDQLKSISA [PHTF1]", "protein stability index", 2.26],
  ["RLAADDFRTKFETEQALRLSVEAD [KRT17]", "protein stability index", 4.66],
  ["FDYEYDWIGKQLPTPVGAVQQDPA [CSNK1G3]", "protein stability index", 3.65],
  ["STTNSTAAKPAASITSKPATLTTT [ZNF207]", "protein stability index", 4.41],
  ["LQLFHQDGTFSPVTLALFFVLYFL [CLCN6]", "protein stability index", 2.13],
  ["FSEEDEEETTSQDWGTPRELTFSY [RTN2]", "protein stability index", 4.22]
]}

====

assay: protein stability index of a GFP-peptide fusion (GPS, HEK-293T) (PSI 1-6); higher = more stable; details: treatment: DMSO; c terminus: a fixed tail appended
We begin with a simple list: items and their reported protein stability index.

{"columns": ["RESIDUE STRING", "protein stability index"],
 "data": [
  ["NECEITKRRRKSCQACRFMKCLKV [ESRRG]", 2.57],
  ["TVSIMEPGETRRNSYPRADTGLFS [TRIM29]", 3.81],
  ["GALTGKENNMLQPETHIFTAPEEV [DMRTC1]", 5.19],
  ["TIKHPGGAGAEESELQAYIAQCQD [MCOLN1]", 5.27],
  ["VLVHVQKWDGKSTTIKRKREDDKL [FABP4]", 2.85],
  ["ERLCMGVDCTEIFGGNPRFLSLHR [ZNF263]", 2.54],
  ["MRAPMLQKQQAPRMDTPPPEERLE [CCDC89]", 5.21],
  ["SDARVVKDMATGKSKGYGFVSFFN [TIA1]", 2.79]
]}

====

experiment: protein stability index of a GFP-peptide fusion (GPS, HEK-293T) (PSI 1-6); higher = more stable; details: treatment: DMSO; c terminus: a fixed tail appended
Hi, to clarify the labels: condition met covers protein stability index from 4 upward, condition not met covers anything below 4.

{"columns": ["RESIDUE STRING", "GROUP"],
 "data": [
  ["LKKAKVQVERMREVNSRCYQPEPF [FBXO34]", "condition not met"],
  ["LLAIQFLEFFYGIATATEIAYYSY [SLC19A2]", "condition not met"],
  ["ANSSSEAPFPNVSTSLLTSAGNRT [ADAMTSL2]", "condition met"],
  ["SGSRPRKPPPRKHTRSWAVLKLLL [LRRC59]", "condition not met"],
  ["AFGWFRCSSCQRSWASAQVQILCH [RTP4]", "condition not met"],
  ["QRGALPAPDPELAAEMYQRGRAVL [RSAD1]", "condition met"],
  ["GPASRMDPESERALQAPHSPSKTD [PBXIP1]", "condition met"],
  ["GVLVEDSNNHHLMLEASEWATIEG [ZBED1]", "condition met"],
  ["IYNSNIFTDPFFIVETLCIIWFSF [KCNA1]", "condition not met"],
  ["NGVSGPSQDLLPPPNPYPLPQEHS [TBX5]", "condition met"]
]}

====

test: protein stability index of a GFP-peptide fusion (GPS, HEK-293T) (PSI 1-6); higher = more stable; details: treatment: DMSO; c terminus: a fixed tail appended

{"columns": ["RESIDUE STRING", "protein stability index"],
 "data": [
  ["VSRRAAAAAATVLLRTARVRRECW [SLC19A2]", 2.58],
  ["GTRYSAPANLYVRELREVRRVPPR [PTPRD]", 4.23],
  ["TYSLVPKKKTKVLKQRTVIEMFKS [EHMT1]", 2.41],
  ["LFVLFMFFGMAFNFIVNDSRKKPI [SOAT1]", 3.19],
  ["SLLRGFLLQNEFVGFMWRQRGRVI [MCOLN1]", 2.29],
  ["TQIRTITEEIRDGKVISSREHVQS [KRT36]", 4.75],
  ["HGDYFRLLLPGIYTVSATAPGYDP [CPN1]", 2.78],
  ["GPMCDLLWSDPDDRGGWGISPRGA [PPP2CA]", 3.1],
  ["AYEIMQTLHPDASANFHSLDDIYY [FUT8]", 2.85],
  ["LLAEKEEKLQKEQKELQDVGQSLR [SASS6]", 5.45],
  ["SVMVMREILDYIFSGQIRLNEDTI [GAN]", 2.53],
  ["EVANKDLTERKYKGDSTIRELKAK [SASS6]", 3.27],
  ["AATTSKEQEPIGTDLDAVRTPEPL [MYBL2]", 5.46],
  ["LAVFARCLAGCEGAHEQVDFKDFY [P3H4]", 1.94],
  ["VRVLESLLVSLVTTVVVFVASMVL [CLCN6]", 3.13],
  ["VLRAGDREDITEPAICALRHLTSR [CTNNB1]", 3.39],
  ["VCRARPRACSHLIRLMQRCWQGDP [RIPK4]", 2.21],
  ["FSDGEKCRREAFRRLGNGVSDDLS [PHTF1]", 4.05],
  ["SITHYRPVSASRSSLDLSYYPTSS [EMD]", 3],
  ["ISPKARCLIRSLLRREPSERLTAP [TRIB1]", 2.22],
  ["FSIDEELVYENFYADFGPLNLAMV [CDC14A]", 2.75],
  ["WVSTQLQATCNVHKSAFNDWFSGH [FADS1]", 2.75],
  ["VKSVSPQGNSVDRMAAPRAEALFD [NCF4]", 4.35],
  ["VLSCEAATQTERRLDLAAVTLRRG [FAM189A2]", 4.25],
  ["KDPYGKPVDLWACGVILYILLVGY [CAMK2A]", 3.16],
  ["PPPDAAATAASSSASSPASVGDPC [SLC25A25]", 5.39],
  ["TAPRQEKHERTHEIIPINVNNNYE [SPRY1]", 4.68],
  ["QKPLCASDGRTFLSRCEFQRAKCK [SMOC2]", 3.14],
  ["EESASRQRFGEALQDQEKAWGFPE [ELOA2]", 5],
  ["AVMEFHVSEDFNKMNFIKTYPAHQ [WDFY1]", 1.99],
  ["VDQYLALPDVSLGRYAYVRGGGDP [MCOLN1]", 3.19],
  ["MRILAHGELVLATAISSFTRHVFT [TLE6]", 3.1],
  ["NLYEEGRTAFLWRGNVVLRAQMIR [TRIM43]", 2.22],
  ["CSPTAHDRECKLPPPSAPASEYCP [WDR88]", 4.55],
  ["ETQTQRGGEFQCGLEAASVYSDHT [RNF180]", 2.33],
  ["HRSACSSAAVRGHPRALPPDARPH [HAGHL]", 3.81],
  ["YRAALRSCSLVLEHQPDNIKALFR [FKBP8]", 2.17],
  ["AGEGAEALARNLLVDGETGESFPA [NFE2L1]", 5.37],
  ["LQLFHQDGTFSPVTLALFFVLYFL [CLCN6]", 2.45],
  ["DRNVVTIFSAPNYCYRCGNQAAIM [PPP2CA]", 2.7],
  ["RLAQGNPQQGFFSSFFTCNQKCQL [ATP23]", 2.49],
  ["LRAGSSEFDSEHNLTSNEGHSLKN [RASAL3]", 4.67],
  ["KCDQPFFWNFKQMWDSKKIGLRQH [WDFY2]", 2.29],
  ["NNPEYLRERNMAPDLRQDFNMMEQ [ADD1]", 4.74],
  ["QELLDTVLVNLVPAHKNLNKQAYD [PDS5B]", 2.95]
]}
